Tested on: apomorphine climbing
Experiment: climbing mice assay (antipsychotic activity)
Type: in vivo, mice (CK-1 male)
Conditions: Mus musculus; ip; apomorphine 1.5 mg/kg subcutaneously; climbing score vs control
Quantity Name: log10(ED50) (log10 of the value in mg/kg)
Hi team, quick reminder: these entries are log10 of ED50 (mg/kg).

Past entries and their recorded results:
Fc1ccc2c(C3CCN(CCN4CCc5ccccc5C4)CC3)noc2c1 : -0.64
O=C1c2ccccc2C(=O)N1CCN1CCN(c2n[nH]c3cc(F)ccc23)CC1 : 0.08
COc1cc(C(C)=O)ccc1OC/C=C\CN1CCC(c2noc3cc(F)ccc23)CC1 : -0.21

Prompt: I am curious: what log10(ED50) value has been reported for CC(=O)c1ccc(CCCCN2CCC(c3noc4cc(F)ccc34)CC2)cc1 ?
Completion: -0.47

Prompt: Item Cl.O=C1c2ccccc2C(=O)N1CCN1CCC(c2n[nH]c3cc(F)ccc23)CC1 has what recorded log10(ED50)?
Completion: -0.10

Prompt: What log10(ED50) value was documented for this molecule, COc1cc(C(C)=O)ccc1OCCCCN1CCC(c2noc3cc(F)ccc23)CC1 ?
Completion: -0.17

---

Test system: apomorphine climbing
Test: climbing mice assay (antipsychotic activity)
Format: in vivo, mice (CK-1 male)
Settings: Mus musculus; ip; apomorphine 1.5 mg/kg subcutaneously; climbing score vs control
Description: Subject […] male mice (23-27 grams) are group-housed under standard laboratory conditions. The mice are individually placed in wire mesh stick cages (4"×10") and are allowed one hour for adaption and exploration of the new environment. For evaluation of climbing, 3 readings are taken at 10, 20, and 30 minutes-after apomorphine administration according to the following scale: […] Mice consistently climbing before the injection of apomorphine are discarded. […]
Quantity Name: ED50 (mg/kg)
Number in mg/kg, nothing else.

In the examples that follow, each entry is paired with its recorded ED50.
O=C1c2c(F)ccc(F)c2C(=O)N1CCN1CCC(c2noc3cc(F)ccc23)CC1 : 2.9
COc1cc(C(C)=O)ccc1OCCCN1CCC(c2noc3cc(F)ccc23)CC1 : 0.095

Proceed to the following item.
Prompt: Report ED50 for COc1cc(C(C)=O)ccc1OCCCN1CCC(c2nsc3cc(F)ccc23)CC1.Cl please.
Completion: 0.16

---

Test system: apomorphine climbing
Assay: climbing mice assay (antipsychotic activity)
Type: in vivo, mice (CK-1 male)
Conditions: Mus musculus; ip; apomorphine 1.5 mg/kg subcutaneously; climbing score vs control
Structures can show the parent of a compound that is named as a salt.
Reported log10 of ED50 values follow for various compounds
Values below are the log10 of the recorded ED50, with mg/kg as the unit.

Completed entries (count: 5):
COc1cccc2c1C(=O)N(CCN1CCC(c3noc4cc(F)ccc34)CC1)C2=O : -0.80
CC1c2ccccc2C(=O)N1CCN1CCC(c2noc3cc(F)ccc23)CC1 (centres unmarked) [hydrochloride] : 0.07
Cl.O=C1c2ccccc2C(=O)N1CCN1CCC(c2nsc3cc(F)ccc23)CC1 : -0.42
C=C1c2ccccc2C(=O)N1CCN1CCC(c2noc3cc(F)ccc23)CC1.Cl : -0.19
Cc1cccc2c1CN(CCN1CCN(c3n[nH]c4cc(F)ccc34)CC1)C2 : -0.46

Prompt: Please report the recorded log10 of ED50 for Fc1ccc2c(C3CCN(CCN4CCCc5ccccc54)CC3)noc2c1.O=C(O)/C=C/C(=O)O .
Completion: 0.08

Prompt: Can you look up the measured log10 of ED50 of Fc1ccc2c(C3CCN(CCC4COc5ccccc5O4)CC3)noc2c1 (centres unmarked) for me?
Completion: -0.54

Prompt: Name the recorded log10 of ED50 for Cl.Cl.Fc1ccc2c(C3CCN(CCN4Cc5ccccc5C4)CC3)noc2c1 .
Completion: -0.44

This collection of values is drawn from patent US5556858A.
